The reported measurements were obtained from ChEMBL document CHEMBL1132322.

- Test system: HCT-116
- measurement.protocol: cells
- Assay type: functional
- assay.context: Homo sapiens
- Description: The logarithmic molar concentration inhibiting 50% net cell growth was measured on HCT116 (M) colon cancer cell lines.
property.label: GI50 (µM)

Look up HCT-116 data: GI50 of ONC1=Nc2ccccc2-c2[nH]c3ccc(Br)cc3c2C1 , then report it.
6.31

a: CN1CCC(c2c(O)cc(O)c3c(=O)cc(-c4ccccc4Cl)oc23)[C@@H](O)C1 (stereo partly specified)
b: O=C1Cc2c([nH]c3ccc(Cl)cc23)-c2ccccc2N1
Which shows the larger GI50 value: a or b ? // return label of chosen record
b
(b: 3.16 µM, a: 0.0251 µM)

a: N#Cc1ccc2[nH]c3c(c2c1)CC(=O)Nc1ccccc1-3 [PAULLONE 2]
b: CCc1cccc2c3c([nH]c12)-c1ccccc1NC(=O)C3
Kindly identify which of a and b has the larger recorded GI50 value. Please indicate the selected item by its label.
b

---

- System: HCT-116
- measurement.protocol: cells
- Type: functional
- assay.context: Homo sapiens
property.label: GI50 (µM)

Return reported GI50. Input compound: O=C1Cc2c([nH]c3ccc(Br)cc23)-c2ccccc2N1Cc1ccccc1
20

P: O=C1Cc2c([nH]c3cc(Br)ccc23)-c2ccccc2N1
Q: O=C1Cc2c([nH]c3ccccc23)-c2ccccc2N1
Compare P and Q and name the one whose reported GI50 is smaller. Your answer should be the label attached to the chosen record.
P

---

- Tested on: Tumor Cell line
- measurement.protocol: cells
- Assay type: functional
- assay.context: Homo sapiens
property.label: GI50 (µM)

Recorded results for 3 compounds are shown here.
Output GI50 of O=C1Cc2c([nH]c3ccc(Cl)cc23)-c2ccccc2N1
79.4

Please list GI50 recorded for the compound ONC1=Nc2ccccc2-c2[nH]c3ccc(Br)cc3c2C1
10

For the compound O=C1Cc2c([nH]c3ccc(Br)cc23)-c2cc(Br)ccc2N1 , give its measured GI50 value.
100

A: O=C1Cc2c([nH]c3cc(Br)ccc23)-c2ccccc2N1
B: O=C1Cc2c([nH]c3ccccc23)-c2cc(Br)ccc2N1
C: CN1CCC(c2c(O)cc(O)c3c(=O)cc(-c4ccccc4Cl)oc23)[C@@H](O)C1 (some centres undefined)
D: O=C1Cc2c([nH]c3c(Br)cccc23)-c2ccccc2N1
// ranking: key=GI50, reverse=True Please list the labels in the order you were asked to rank them.
B, D, A, C
(B: 100 µM, D: 50.1 µM, A: 15.8 µM, C: 0.0631 µM)

---

- System: Tumor Cell line
- measurement.protocol: cells
- assay.context: Homo sapiens, read-out: Log GI50 (converted)
Each entry below lists one item and its recorded GI50 value.
Report the figure in µM without appending any unit label.

Write down GI50 measured for item O=C1Cc2c([nH]c3ccc(Br)cc23)-c2ccccc2N1Cc1ccccc1 [PAULLONE]
100

Entry CCN1C(=O)Cc2c([nH]c3ccc(Br)cc23)-c2ccccc21 needs its GI50 filled in; supply it.
12.6

For the compound O=C1Cc2c([nH]c3ccc([N+](=O)[O-])cc23)-c2ccccc2N1 [ALSTERPAULLONE] , report GI50.
0.316

Determine its reported GI50: COC(=O)CN1C(=O)Cc2c([nH]c3ccc(Br)cc23)-c2ccccc21
31.6

---

- Tested on: Tumor Cell line
- measurement.protocol: cells
- Format: functional
- assay.context: Homo sapiens
property.label: GI50 (µM)

Look up GI50 of CCc1cccc2c3c([nH]c12)-c1ccccc1NC(=O)C3 and report it.
63.1

Please give the documented GI50 of O=C1Cc2c([nH]c3ccc(Br)cc23)-c2ccccc2N1
39.8

Tell me GI50 reported for N#Cc1ccc2[nH]c3c(c2c1)CC(=O)Nc1ccccc1-3
79.4

Give a short answer stating reported GI50 for COc1cccc2c1NC(=O)Cc1c-2[nH]c2ccccc12 .
79.4

Give the reported GI50 for this compound. O=C1Cc2c([nH]c3c(Cl)cccc23)-c2ccccc2N1
100

P: O=C1Cc2c([nH]c3ccc(Br)cc23)-c2cc(O)c(O)cc2N1
Q: O=C1Cc2c([nH]c3ccccc23)-c2ccccc2N1
Would you kindly point out which of P and Q has the smaller GI50 figure? Selection: enter the item's label.
Q
(Q: 31.6 µM, P: 100 µM)
